Data origin, for the record: patent US20220073608A1

molecular target: T1, monkey SEMA4D, full length, on CHO-K1 cells (CHO-K1 cSEMA4D) (monkey); assay: FACS, CHO-K1 cSEMA4D cells; Ab 0.0213 nM
T1 construct: whole, on cells; also called monkey SEMA4D recombinant cells
readout-label: MFI
Note: the reply should be a number with no unit written.

* 38H2E3 (antibody, V domains shown, Mouse monoclonal antibody purified from hybridoma supernatant on protein A) VH: EFQLQQSGPEVVKPGASVKISCKASGYSFTDYNMNWMKQSKGKSLEWIGVISPDYGTTTYNQNFKDKATLTVDQSSSTAYMQLNSLTSEDSAVYYCAKDMYYVYAYYTMDYWGHGTSVTVSS VL: DVVMTQTPLSLPVSLGDQASISCRSSQSLVHSNGHTYLHWYLQRPGQSPTLLIYKVSNRFSGVPDRVSGSGSGTDFTLKISRVEAEDLGVYFCSQGTHVPRTFGGGTKLEIK | 69.1
* 31G10C5 (antibody, V domains shown, Mouse monoclonal antibody purified from hybridoma supernatant on protein A) VH: EVQLQQSGAELVRPGASVKLSCTASGFNIKDDYIHWVKQRPEQGLEWIGWIDPANGHIEYASNFQAKATITADTSSNTAYLQLSSLTSEDTAVYYCTTGDYDGFTYWGQGTLVTVST VL: QIVLTQSPAIMSASPGEKVTISCSARSSVSYMYWYQQKPGSSPKPWIYRTSNLASGVPARFSGSGSGTSYSLTISSMEAEDAATYYCQHYHTYPYTFGGGTKLEIK | 414
* 42B7G2 (antibody, V domains shown, Mouse monoclonal antibody purified from hybridoma supernatant on protein A) VH: QVQLQQSGAELARPGASVKLSCKASGYTFTDYGISWVKQRTGQGLEWIGEIYLRNDNSYYNEKFKGKATLTADKSSNTAYMELRSLTSEDSAVYFCARWGDHGNNYEDAMDYWGQGTSVTVSS VL: DIVLTQSPASLAMSLGKRATISCRASESVSIIGSNLIHWYQQKPGQPPKLLIYHASNLETGVPARFSGSGSRTDFTLTIDPVEEDDVAIYYCLQSRKVPYTFGGGTKLEIK | 216

Lab note: next binder to report on.
[ask] Output MFI of 37C4F7 (antibody, V domains shown, Mouse monoclonal antibody purified from hybridoma supernatant on protein A) VH: EFQLQQSGPEVVKPGASVKISCKASGYSFTDYNMNWMKQSKGKSLEWIGVINPNYGTTTYNQNFKGKATLTVDQSSSTAYMQLNSLTSEDSAVYYCARDMYYVYAYYTMDYWGQGTSVTVSS VL: DVVMTQTPLSLPVSLGDQASISCRSSQSLVHSNGHTYLHWYLQRPGQSPTLLIYKVSNRFSGVPDRFSGSGSGTDFTLKISRVEAEDLGVYFCSQGTHVPWTFGGGTKLEIK
[reply] 79.4
